Where do these numbers come from? They come from the supplement of paper PMC7877785.

test: self-splicing fitness, log relative to wild type (ln ratio); higher = more splicing; Tetrahymena group I intron in knt gene, E. coli kanamycin selection, DiMSum; sequences stand for … in CUCUCU…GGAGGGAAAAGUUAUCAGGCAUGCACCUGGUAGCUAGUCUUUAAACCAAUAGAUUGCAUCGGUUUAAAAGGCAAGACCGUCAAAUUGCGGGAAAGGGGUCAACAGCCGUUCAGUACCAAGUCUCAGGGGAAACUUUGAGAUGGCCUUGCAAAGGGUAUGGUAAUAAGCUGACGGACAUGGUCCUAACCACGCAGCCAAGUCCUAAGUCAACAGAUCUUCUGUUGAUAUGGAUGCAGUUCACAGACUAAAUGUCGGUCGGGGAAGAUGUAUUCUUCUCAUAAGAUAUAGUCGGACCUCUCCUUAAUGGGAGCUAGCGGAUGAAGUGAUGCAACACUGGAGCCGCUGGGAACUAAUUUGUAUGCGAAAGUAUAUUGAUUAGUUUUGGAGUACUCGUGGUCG; conditions: 30 °C;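 note: selection with 25 µg/mL kanamycin versus none on LB agar overnight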
Assign class by self-splicing fitness (ln): not lower than -3 means t; lower than -3 means f.

CGACAGCAAUAUUACGUGCU    f
CACUAGCAAUAUUACGGCAC    t
AGCCAGCAAUAUUACGGCGU    t
ACCUAGCAAUAUUACGAGUA    t
GUUAAGCAAUAUUACGAUGC    t

Hello, I need to know if AAGUAGCAAUAUUACGGCCU has measured self-splicing fitness (ln) not below -3. Thanks! t

Hello, I need to know if AUGUAGCAAUAUUACGAGAU has measured self-splicing fitness (ln) not below -3. Thanks! t

* * *

Parameter: self-splicing fitness (ln). Scope: all listed entries.
test: self-splicing fitness, log relative to wild type (ln ratio); higher = more splicing; Tetrahymena group I intron in knt gene, E. coli kanamycin selection, DiMSum; sequences stand for … in CUCUCU…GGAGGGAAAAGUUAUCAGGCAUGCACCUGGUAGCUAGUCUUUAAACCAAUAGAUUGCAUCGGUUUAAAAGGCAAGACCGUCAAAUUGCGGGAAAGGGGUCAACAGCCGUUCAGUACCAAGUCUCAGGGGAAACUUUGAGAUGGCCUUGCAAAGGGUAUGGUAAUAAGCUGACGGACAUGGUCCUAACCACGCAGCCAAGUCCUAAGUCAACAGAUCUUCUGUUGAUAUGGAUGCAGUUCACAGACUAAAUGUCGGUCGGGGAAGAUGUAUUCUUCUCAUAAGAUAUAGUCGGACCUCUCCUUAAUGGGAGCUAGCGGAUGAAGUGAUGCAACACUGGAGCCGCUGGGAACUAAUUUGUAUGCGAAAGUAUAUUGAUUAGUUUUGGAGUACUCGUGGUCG; settings: 37 °C
# answer = number (no unit)

GCAUAGCAAUAUUACGUCAG    -1.8
CCCUAGCAAUAUUACGGCCA    -2.19
UUGUAGCAAUAUUACGUAUG    -1.42
UUCCAGCAAUAUUACGGGAU    -3.13
UCCAAGCAAUAUUACGUACG    -1.76

The sequence AUUCAGCAAUAUUACGGCCA showed self-splicing fitness (ln) equal to -0.225

The sequence AGGGAGCAAUAUUACGUAGG showed self-splicing fitness (ln) equal to -2.14

The sequence UGUAAGCAAUAUUACGGCGC showed self-splicing fitness (ln) equal to -1.43

The sequence CGGUAGCAAUAUUACGGAUC showed self-splicing fitness (ln) equal to -1.68

* * *

assay: self-splicing fitness, log relative to wild type (ln ratio); higher = more splicing; Tetrahymena group I intron in knt gene, E. coli kanamycin selection, DiMSum; sequences stand for … in CUCUCU…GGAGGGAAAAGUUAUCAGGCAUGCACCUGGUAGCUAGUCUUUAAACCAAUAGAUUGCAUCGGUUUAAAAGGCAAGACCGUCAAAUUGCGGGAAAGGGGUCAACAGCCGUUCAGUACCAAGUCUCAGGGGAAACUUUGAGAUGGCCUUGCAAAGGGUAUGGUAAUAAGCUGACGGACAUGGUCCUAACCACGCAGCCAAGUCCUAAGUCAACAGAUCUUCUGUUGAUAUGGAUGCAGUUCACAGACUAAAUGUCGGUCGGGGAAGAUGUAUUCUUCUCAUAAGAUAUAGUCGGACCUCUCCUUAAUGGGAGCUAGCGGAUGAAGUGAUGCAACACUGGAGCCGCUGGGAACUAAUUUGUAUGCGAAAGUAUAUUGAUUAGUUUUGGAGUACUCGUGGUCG; details: 37 °C
Label scheme for self-splicing fitness (ln): low-valued (below -2), mid-valued (-2 to below -1), high-valued (-1 or more)

As a guide, the following entries are already answered.
GACUAGCAAUAUUACGCUUG    mid-valued
UGAAAGCAAUAUUACGAGUC    low-valued
CGCCAGCAAUAUUACGAGGA    low-valued
UUGAAGCAAUAUUACGCAGC    mid-valued
UCGCAGCAAUAUUACGUUAG    mid-valued

Class (by measured self-splicing fitness (ln)) for AUGCAGCAAUAUUACGGGGC low-valued

Class (by measured self-splicing fitness (ln)) for GGGCAGCAAUAUUACGGGAG low-valued

* * *

Parameter: self-splicing fitness (ln). Scope: all listed entries.
test: self-splicing fitness, log relative to wild type (ln ratio); higher = more splicing; Tetrahymena group I intron in knt gene, E. coli kanamycin selection, DiMSum; sequences stand for … in CUCUCU…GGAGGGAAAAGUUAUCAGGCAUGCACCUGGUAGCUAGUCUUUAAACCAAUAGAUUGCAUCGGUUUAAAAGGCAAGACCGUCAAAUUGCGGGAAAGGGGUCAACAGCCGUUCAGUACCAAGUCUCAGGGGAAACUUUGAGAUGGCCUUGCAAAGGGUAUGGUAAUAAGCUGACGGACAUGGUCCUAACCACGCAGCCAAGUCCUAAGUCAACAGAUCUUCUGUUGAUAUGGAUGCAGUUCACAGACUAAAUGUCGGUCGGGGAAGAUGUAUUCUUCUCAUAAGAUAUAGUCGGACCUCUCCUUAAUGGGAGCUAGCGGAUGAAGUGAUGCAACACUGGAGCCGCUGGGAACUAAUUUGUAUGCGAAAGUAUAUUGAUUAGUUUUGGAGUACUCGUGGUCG; conditions: 30 °C
# answer = number (no unit)

Before answering, review these 3 worked examples.
AUGGAGCAAUAUUACGGUCC    -3
CGCCAGCAAUAUUACGCGGU    -3.04
AAGAAGCAAUAUUACGAAAU    -1.98

Okay, next one:
The sequence GUGCAGCAAUAUUACGUGAU showed self-splicing fitness (ln) equal to -1.98

* * *

assay: self-splicing fitness, log relative to wild type (ln ratio); higher = more splicing; Tetrahymena group I intron in knt gene, E. coli kanamycin selection, DiMSum; sequences stand for … in CUCUCU…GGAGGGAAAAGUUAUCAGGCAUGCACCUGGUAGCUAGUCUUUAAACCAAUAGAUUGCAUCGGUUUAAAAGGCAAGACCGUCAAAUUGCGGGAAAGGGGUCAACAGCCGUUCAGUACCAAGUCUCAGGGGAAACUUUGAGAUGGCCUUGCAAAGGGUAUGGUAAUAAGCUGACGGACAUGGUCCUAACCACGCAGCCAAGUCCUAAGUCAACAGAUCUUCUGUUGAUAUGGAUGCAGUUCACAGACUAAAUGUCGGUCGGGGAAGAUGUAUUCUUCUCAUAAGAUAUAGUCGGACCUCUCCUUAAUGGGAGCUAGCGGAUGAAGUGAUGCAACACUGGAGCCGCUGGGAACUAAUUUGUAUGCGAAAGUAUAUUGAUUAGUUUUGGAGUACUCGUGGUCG; conditions: 37 °C
Assign class by self-splicing fitness (ln): not lower than -2 means Criterion met; lower than -2 means Criterion not met.

As a guide, the following entries are already answered.
GGAAAGCAAUAUUACGGCAA    Criterion met
AAUUAGCAAUAUUACGCCAA    Criterion met
CGAUAGCAAUAUUACGUCGU    Criterion not met
AUACAGCAAUAUUACGAGAU    Criterion met

Hello, I need to know if GCAAAGCAAUAUUACGUCAG has measured self-splicing fitness (ln) not below -2. Thanks! Criterion met

Hello, I need to know if CGCAAGCAAUAUUACGGCUG has measured self-splicing fitness (ln) not below -2. Thanks! Criterion met

Hello, I need to know if AGAAAGCAAUAUUACGCGUU has measured self-splicing fitness (ln) not below -2. Thanks! Criterion not met

Hello, I need to know if CGUAAGCAAUAUUACGCUUA has measured self-splicing fitness (ln) not below -2. Thanks! Criterion not met

* * *

experiment: self-splicing fitness, log relative to wild type (ln ratio); higher = more splicing; Tetrahymena group I intron in knt gene, E. coli kanamycin selection, DiMSum; sequences stand for … in CUCUCU…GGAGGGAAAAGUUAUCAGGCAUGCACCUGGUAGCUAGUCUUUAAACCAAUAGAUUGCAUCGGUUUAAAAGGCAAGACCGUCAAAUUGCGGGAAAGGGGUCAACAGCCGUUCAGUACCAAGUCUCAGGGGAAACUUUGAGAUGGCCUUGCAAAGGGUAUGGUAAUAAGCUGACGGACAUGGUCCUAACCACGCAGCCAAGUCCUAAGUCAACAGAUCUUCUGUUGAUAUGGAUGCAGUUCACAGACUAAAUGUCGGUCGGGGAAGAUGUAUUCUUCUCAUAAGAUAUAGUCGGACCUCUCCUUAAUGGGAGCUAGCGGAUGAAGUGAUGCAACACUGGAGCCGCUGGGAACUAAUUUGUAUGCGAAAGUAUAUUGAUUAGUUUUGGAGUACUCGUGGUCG; conditions: 37 °C
Parameter: self-splicing fitness (ln). Scope: all listed entries.
# answer = number (no unit)

Before answering, review these 4 worked examples.
UACUAGCAAUAUUACGGGAG    -1.19
UCGCAGCAAUAUUACGUCUU    -0.165
GGAAAGCAAUAUUACGGUGU    -1.15
GCGCAGCAAUAUUACGAGUG    -1.47

Okay, next one:
The sequence ACGUAGCAAUAUUACGUCUG showed self-splicing fitness (ln) equal to -2.71
